Where do these numbers come from? They come from paper PMC7508416.

conditions: 1 μM dose; linear regression
Marks after values point to notes of the source that are not given here.
Readings of Depletion rate, slope, zero-order kinetics for the listed molecules

Worked cases, Depletion rate, slope, zero-order kinetics given:
molecule	endpoint_result
O=P(Oc1ccccc1)(Oc1ccccc1)Oc1ccccc1 [TPHP, triphenyl phosphate, reference compound]	−0.024 nmol/min/mg protein
CC(C)(C)c1ccc(OP(=O)(Oc2ccccc2)Oc2ccccc2)cc1 [4tBPDPP, 4-tert-butylphenyl diphenyl phosphate]	−0.031 nmol/min/mg protein
CC(C)c1ccc(OP(=O)(Oc2ccccc2)Oc2ccccc2)cc1 [4IPPDPP, 4-isopropylphenyl diphenyl phosphate]	−0.042 nmol/min/mg protein

From here, focus on the item given below.
# input Name the recorded Depletion rate, slope, zero-order kinetics of the item CC(C)c1ccccc1OP(=O)(Oc1ccccc1)Oc1ccccc1 [2IPPDPP, 2-isopropylphenyl diphenyl phosphate] in your answer.
# output −0.013 ^* nmol/min/mg protein
